Collected Native geph Binding Intensity [norm.] values appear next to each entry.
system: native geph; assay: µSPOT peptide microarray binding assay with native geph from mouse brain lysate; conditions: µSPOT peptide microarray, GlyRβ full positional scan, native geph from mouse brain lysate; intensity normalised to wild-type sequence DLRSNDFSIVGSLPR (=1)
PARAMETER: Native geph Binding Intensity [norm.] (norm.)

>>> value("LLRSNDFSIVGSLPR [GlyRβ_Full_Positional_Scan_004]")
0.66
>>> value("DLNSNDFSIVGSLPR [GlyRβ_Full_Positional_Scan_059]")
1.28
>>> value("DLRGNDFSIVGSLPR [GlyRβ_Full_Positional_Scan_062]")
1.16
>>> value("DLRSNDFWIVGSLPR [GlyRβ_Full_Positional_Scan_148, GlyR β 414-428 variant S421W]")
0.24
>>> value("DARSNDFSIVGSLPR [GlyRβ_Full_Positional_Scan_021]")
0.95
>>> value("DLRSNDFRIVGSLPR [GlyRβ_Full_Positional_Scan_152, GlyR β 414-428 variant S421R]")
0.23

* * *

Below, each of the sequences is paired with its reported Native geph Binding Intensity [norm.] value.
system: native geph; assay: µSPOT peptide microarray binding assay with native geph from mouse brain lysate; conditions: µSPOT full positional scan of GlyRβ 15-mer DLRSNDFSIVGSLPR; native geph; intensity normalised to wild-type sequence (= 1)
PARAMETER: Native geph Binding Intensity [norm.]

>>> value("DLRSNDFSIVGSDPR [GlyRβ_Full_Positional_Scan_250]")
"0.61 norm."
>>> value("DLRSNDFSIVGLLPR [GlyRβ_Full_Positional_Scan_224]")
"0.44 norm."
>>> value("DLRSNDFSIVGSMPR [GlyRβ_Full_Positional_Scan_258]")
"0.92 norm."

* * *

# key: entry, value: gephE Binding Intensity [norm.]
system: gephE; assay: µSPOT peptide microarray binding assay with recombinant gephE; details: overlapping GABAAR α3 peptide library on µSPOT array; 20 nM gephE; normalized to most prominent spot; n = 2 array-internal duplicate
PARAMETER: gephE Binding Intensity [norm.] (norm.)

>>> value("YVQDSPAETKTYNSVSKVDK [GABAAR α3 residues 438-457, µSpot library]")
0.073
>>> value("WEGKKVPEALEMKKKTPAAP [GABAAR α3 residues 369-388, µSpot library]")
0.048
>>> value("STPTAIASPKATYVQDSPAE [GABAAR α3 residues 426-445, µSpot library]")
0.019
>>> value("NYFTKRSWAWEGKKVPEALE [GABAAR α3 residues 360-379, µSpot library]")
0.062
>>> value("YPINLAKDTEFSTISKSAAA [GABAAR α3 residues 402-421, µSpot library]")
0.039
>>> value("KSAAAPSASSTPTAIASPKA [GABAAR α3 residues 417-436, µSpot library]")
0.030
>>> value("GTTYPINLAKDTEFSTISKS [GABAAR α3 residues 399-418, µSpot library]")
0.030

* * *

test system: FL-geph; assay: µSPOT peptide microarray binding assay with full-length geph; settings: µSPOT peptide microarray, GlyRβ full positional scan, intensity normalised to wild-type sequence DLRSNDFSIVGSLPR (=1)
PARAMETER: Fl-geph Binding Intensity [norm.]

>>> value("DLRSNDQSIVGSLPR [GlyRβ_Full_Positional_Scan_140, GlyR β 414-428 variant F420Q]")
"0.66 norm."
>>> value("DLRSNDFSIVASLPR [GlyRβ_Full_Positional_Scan_201, GlyR β 414-428 variant G424A]")
"0.56 norm."
>>> value("DLRSNDFPIVGSLPR [GlyRβ_Full_Positional_Scan_145, GlyR β 414-428 variant S421P]")
"0.66 norm."
